# Tested on: NCI/ADR-RES ovarian
# protocol: NCI tumour cell line growth inhibition, 48 h; in the data active = GI50 below about 0.43 µM; inactive = the rest
Classes used: 1 (active), -1 (inactive)

| compound | category |
| --- | --- |
| O=C(Nc1cccc(Cl)c1)Nc1cc(C(F)(F)F)ccc1Cl | -1 |
| COc1ccc(COc2ccc(Cc3cnc(N)nc3N)cc2OC)cc1 | -1 |
| Cc1ccccc1N=C(c1ccccc1)C1C(=O)c2ccccc2C1=O | -1 |
| CC(C)Cc1cc(-c2cccn2C)c(C#N)c(=O)[nH]1 | -1 |
| CCCCCCCN(CCCCCCC)C(=N)c1ccc(OC)c2ccccc12 | -1 |
| c1ccc2cc(Cn3c(-c4cccc5ccccc45)[n+](Cc4ccc5ccccc5c4)c4c5ccccc5c5ccccc5c43)ccc2c1 | -1 |
| Cc1cc(C(=O)NOCCO)c(Nc2ccc(I)cc2F)n(C)c1=O | -1 |
| CC(=O)Nc1ccc2c(c1)[nH]c(=O)c1cc(NC(C)=O)ccc12 | -1 |
| COc1cc2cc(C(=O)Nc3ccccc3)c(N)nc2cc1OC | -1 |
| Clc1ccc(Nc2nnc(COc3ccccc3)c3ccccc23)cc1 | -1 |
| OC(CBr)C(O)C(O)C(O)CBr (centres undefined) | -1 |
| O=[N+]([O-])c1ccc(NC(c2ccccc2)c2ccc3cccnc3c2O)cc1 (centres undefined) | 1 |
| COC1C[C@H](O[C@@H]2C[C@H](O[C@@H]3C[C@H](O[C@@H]4C(=O)c5c(cc6cc(O[C@H]7C[C@@H](O[C@H]8C[C@@H](O)[C@H](O)C(C)O8)[C@H](O)C(C)O7)c(C)c(O)c6c5O)C[C@H]4C(OC)C(=O)[C@@H](O)[C@@H](C)O)OC(C)[C@H]3O)OC(C)[C@@H]2O)OC(C)[C@@H]1O (some centres undefined) | -1 |
| C#Cc1cccc(NC(=O)C2CCCCN2C(=O)CCl)c1 (centres undefined) | -1 |
| O=C(/C=C/c1cc2ccccc2[nH]c1=O)c1ccc(O)cc1 | -1 |
| C/C=C1/CN2CCC34c5ccccc5N5C(=O)C(C6CC78c9ccccc9N9C(=O)C=CC(C%10CC7N6C/C%10=C/C)C98)=CC(C1CC23)C54 (centres undefined) | -1 |
| CS(=O)(=O)Nc1cc(-c2ccc3ncnc(Nc4ccc(OCc5ccccn5)c(Cl)c4)c3c2)cnc1Cl | -1 |
| O=C(O)[C@@H](Cc1ccccc1)NS(=O)(=O)c1ccc(-c2ccccc2)cc1 | -1 |
| CC(=O)OCc1cc[c]([Hg][Cl])o1 | -1 |

---

# Test system: DU-145 prostate
# protocol: NCI tumour cell line growth inhibition, 48 h
measuredAttribute: TGI

| molecule | result |
| --- | --- |
| CCOP(=O)(OCC)C(Cc1cn(S(=O)(=O)c2ccc(C)cc2)cn1)C(=O)O (stereo unspecified) | > 100 µM |
| CC1(/C=C/c2ccc(-c3ccccc3)cc2)CCn2cnc3ncnc(c32)N1O (stereo unspecified) | > 56.7 µM |
| OCC1OC(n2cnc3cc(Cl)c(Cl)cc32)C(O)C1O (stereo unspecified) | > 61.2 µM |
| Clc1ccc(Nc2nnc(COc3ccccc3)c3ccccc23)cc1 | 10.5 µM |
| C=c1c2ccccc2oc2nc3[nH]c(N)c(C#N)c(N)c3c(=N)c12 | > 100 µM |
| O=c1oc2c(Cl)cc(Cl)cc2cc1-c1cn2c(n1)sc1ccccc12 | > 100 µM |
